molecular target: binding of IL-17A to IL-17RA (Homo sapiens (Human))
Sequence (Q16552 other isoform, or with tags, fused parts or gaps): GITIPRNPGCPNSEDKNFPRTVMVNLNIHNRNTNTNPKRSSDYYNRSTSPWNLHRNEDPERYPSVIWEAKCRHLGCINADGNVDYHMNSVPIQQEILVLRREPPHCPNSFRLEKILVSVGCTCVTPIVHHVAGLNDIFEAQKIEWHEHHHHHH
result type: IC50 (µM)

smiles_record=Cc1nocc1C(=O)N[C@H](c1cn2ncc(CN3C[C@@H](C(F)(F)F)NC3=O)cc2n1)C1CCC(F)(F)CC1 reading=0.0277
smiles_record=CC(C)(F)c1nocc1C(=O)N[C@H](c1cn2ncc(CN3C[C@@H](C(F)(F)F)NC3=O)cc2n1)C1CCC(F)(F)CC1 reading=0.0519

(P) O=C(N[C@H](c1cn2ncc(CN3C[C@@H](C(F)(F)F)NC3=O)cc2n1)C1CCC(F)(F)CC1)c1conc1CF
(Q) CC(C)c1nocc1C(=O)N[C@H](c1cn2ncc(CN3C[C@@H](C(F)(F)F)NC3=O)cc2n1)C1CCC(F)(F)CC1
Please let me know which one, P or Q , has a lower measured IC50 value. Write down the label of the entry you select. Q

----------
A short record of IC50 observed with human IL-17A (Homo sapiens (Human)) follows.
Sequence (Q16552 20-155): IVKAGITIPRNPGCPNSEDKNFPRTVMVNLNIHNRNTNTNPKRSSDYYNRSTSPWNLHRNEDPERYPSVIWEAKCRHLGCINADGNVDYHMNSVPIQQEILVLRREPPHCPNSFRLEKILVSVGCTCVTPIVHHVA
result type: IC50 (nM)

smiles_record=O=C(N[C@H](c1cn2ncc(CN3C[C@@H](C(F)(F)F)NC3=O)cc2n1)C1CCC(F)(F)CC1)c1conc1C1CC(F)(F)C1 reading=48.9
smiles_record=Cc1nocc1C(=O)N[C@H](c1cn2ncc(CN3C[C@@H](C(F)(F)F)NC3=O)cc2n1)C1CCC(F)(F)CC1 reading=127
smiles_record=Cc1nonc1C(=O)N[C@H](c1cn2ncc(CN3C[C@@H](C(F)(F)F)NC3=O)cc2n1)C1CCC(F)(F)CC1 reading=94.2
smiles_record=O=C(N[C@H](c1cn2ncc(CN3C[C@@H](C(F)(F)F)NC3=O)cc2n1)C1CCC(F)(F)CC1)c1nonc1C(F)F reading=22.7
smiles_record=COC[C@H](c1cnn2cc([C@@H](NC(=O)c3nonc3C)C3CCC(F)(F)CC3)nc2c1)N1C[C@@H](C(F)(F)F)NC1=O reading=9.3
smiles_record=O=C(N[C@H](c1cn2ncc(CN3C[C@@H](C(F)(F)F)NC3=O)cc2n1)C1CCC(F)(F)CC1)c1conc1C1CC1 reading=51.6

(P) CC(C)(F)c1nocc1C(=O)N[C@H](c1cn2ncc(CN3C[C@@H](C(F)(F)F)NC3=O)cc2n1)C1CCC(F)(F)CC1
(Q) O=C(N[C@H](c1cn2ncc(CN3C[C@@H](C(F)(F)F)NC3=O)cc2n1)C1CCC(F)(F)CC1)c1conc1C(F)(F)C1CC1
Which record would sort first by descending IC50, P or Q ? // caller expects the label of the chosen entry P

(A) CC(F)(F)c1nocc1C(=O)N[C@H](c1cn2ncc(CN3C[C@@H](C(F)(F)F)NC3=O)cc2n1)C1CCC(F)(F)CC1
(B) O=C(N[C@H](c1cn2ncc(CN3C[C@@H](C(F)(F)F)NC3=O)cc2n1)C1CCC(F)(F)CC1)c1nonc1CC(F)(F)F
Form field 'greater IC50' accepts A or B ; which applies? Response format: the label of the selected entry. A

----------
molecular target: UniProt Q16552
pIC50: −log10 of the molar value.
result type: pIC50

smiles_record=CCc1nocc1C(=O)N[C@H](c1cn2ncc(CN3C[C@@H](C(F)(F)F)NC3=O)cc2n1)C1CCC(F)(F)CC1 reading=7.82

(P) COc1nonc1C(=O)N[C@H](c1cn2ncc(CN3C[C@@H](C(F)(F)F)NC3=O)cc2n1)C1CCC(F)(F)CC1
(Q) CC1(c2nocc2C(=O)N[C@H](c2cn3ncc(CN4C[C@@H](C(F)(F)F)NC4=O)cc3n2)C2CCC(F)(F)CC2)CC1
Compare P and Q and name the one whose reported pIC50 is smaller. Answer by quoting the chosen item's label. Q
